Reference source: patent US20260217708A1

testedSystem: system Xc^− (Homo sapiens)
Sequence (Q9UPY5 1-501): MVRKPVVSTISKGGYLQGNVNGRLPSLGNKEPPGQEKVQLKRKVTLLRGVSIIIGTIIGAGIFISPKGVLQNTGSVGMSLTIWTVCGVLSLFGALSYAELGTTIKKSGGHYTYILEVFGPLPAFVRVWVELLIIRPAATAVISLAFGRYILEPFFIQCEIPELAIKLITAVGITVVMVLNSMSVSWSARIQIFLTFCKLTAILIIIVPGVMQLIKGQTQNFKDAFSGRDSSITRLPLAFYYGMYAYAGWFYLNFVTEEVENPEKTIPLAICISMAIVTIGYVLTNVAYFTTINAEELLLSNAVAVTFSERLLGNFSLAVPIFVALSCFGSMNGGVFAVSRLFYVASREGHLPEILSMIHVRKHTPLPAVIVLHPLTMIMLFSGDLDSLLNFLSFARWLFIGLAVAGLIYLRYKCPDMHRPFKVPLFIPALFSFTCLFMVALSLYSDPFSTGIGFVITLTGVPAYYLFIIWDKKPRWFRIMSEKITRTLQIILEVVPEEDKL
Sequence (P08195 1-529 partner): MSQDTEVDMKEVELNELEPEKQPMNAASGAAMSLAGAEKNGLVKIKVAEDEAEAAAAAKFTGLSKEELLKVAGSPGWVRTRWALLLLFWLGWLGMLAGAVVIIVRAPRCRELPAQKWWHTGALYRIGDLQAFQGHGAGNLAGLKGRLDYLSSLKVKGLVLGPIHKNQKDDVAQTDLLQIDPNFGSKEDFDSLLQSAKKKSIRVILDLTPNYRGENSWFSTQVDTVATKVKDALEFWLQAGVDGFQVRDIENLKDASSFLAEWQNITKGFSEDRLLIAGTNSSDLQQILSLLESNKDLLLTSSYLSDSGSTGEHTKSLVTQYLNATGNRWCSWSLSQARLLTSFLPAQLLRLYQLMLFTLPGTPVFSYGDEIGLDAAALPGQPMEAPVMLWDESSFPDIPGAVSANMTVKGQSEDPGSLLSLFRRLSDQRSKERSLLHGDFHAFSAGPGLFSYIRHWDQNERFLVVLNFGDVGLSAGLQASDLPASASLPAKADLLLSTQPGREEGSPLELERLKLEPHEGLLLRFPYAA
assaySummary: [^14C]L-Cystine uptake assay
Type: cell-based
Parameters: endogenous in cells; host or cells: H4 cells
conditionSet: H4 cells, sodium-free HEPES buffer, 0.5 μM L-[14C]Cystine and 4.5 μM L-Cystine, 1 hour at 37° C.; read-out: pIC50 [^14C] L-Cystine uptake assay (converted)
endpoint: IC50

compound="Cc1cc2c(c(F)n1)-c1ccccc1C(O)C(=O)N2CC(=O)Nc1ccc(C(F)(F)F)cc1 (stereo not shown)" endpoint=IC50 reported="39.8 to 100 nM"
compound="CC1C(=O)N(CC(=O)Nc2ccc(Cl)c(F)c2)c2cc(CO)c(=O)n(C)c2-c2ccccc21 (stereo not shown)" endpoint=IC50 reported="39.8 to 100 nM"
compound="Cc1cc2c(c(Cl)n1)-c1ccnnc1C(C)C(=O)N2CC(=O)Nc1ccc(Cl)c(F)c1 (single isomer, unassigned)" endpoint=IC50 reported="< 15.8 nM"
compound="CC1C(=O)N(CC(=O)Nc2ccc(C(F)F)cc2)c2cc(C#N)ccc2-c2cccnc21 (single isomer, unassigned)" endpoint=IC50 reported="39.8 to 100 nM"
compound=Cc1cc2c(cn1)-c1ncccc1CC(=O)N2CC(=O)Nc1ccc(C(F)(F)F)cc1 endpoint=IC50 reported="100 to 501 nM"
compound="CC1C(=O)N(CC(=O)Nc2ccc(C(F)F)cc2)c2cc(N3[C@@H]4CCC[C@H]3C4)nc(F)c2-c2cccnc21 (single isomer, unassigned)" endpoint=IC50 reported="< 15.8 nM"
compound="Cc1cc2c(c(F)n1)-c1ncc(F)cc1C(C)C(=O)N2CC(=O)Nc1ccc(C(F)F)cc1 (single isomer, unassigned)" endpoint=IC50 reported="15.8 to 39.8 nM"
